Target: T1, recombinant matriptase protease domain with an N-terminal thioredoxin tag (Trx-MTX PD) (human) (UniProt Q9Y5Y6)
T1 sequence: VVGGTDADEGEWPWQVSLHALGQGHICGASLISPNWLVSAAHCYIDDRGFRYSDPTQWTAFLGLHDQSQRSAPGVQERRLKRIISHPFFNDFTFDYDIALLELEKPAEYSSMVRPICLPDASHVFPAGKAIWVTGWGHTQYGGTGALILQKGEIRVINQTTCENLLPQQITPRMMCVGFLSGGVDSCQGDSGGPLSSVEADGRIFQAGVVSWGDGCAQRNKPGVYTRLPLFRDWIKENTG
Assay: SPR; BIAcore; Trx-MTX PD amine-coupled to a CM5 chip; GST fusion proteins as analytes at 30 µl/min, 120 sec association, 180 sec dissociation; 10 mM HEPES, 150 mM NaCl, pH 7.4; KD by affinity analysis (BIAevaluation), called estimated
# Kd annotations
// note: answer is a bare numeric in nM

Binder	Quantity Unit	Kd
GST fusion protein of HAI-2 Kunitz domain 1 (GST-KD1) (domain or fragment) CLVSKVVGRCRASMPRWWYNVTDGSCQLFVYGGCDGNSNNYLTKEECLKKC	nM	10

Now look at this entry.
Exercise: Provide one value: measured Kd of GST fusion protein of HAI-2 Kunitz domain 2 (GST-KD2) (domain or fragment) CTANAVTGPCRASFPRWYFDVERNSCNNFIYGGCRGNKNSYRSEEACMLRC
Key: 10

Where do the numbers come from? From paper PMC5678078.
